# logP per record follows
Please reply with the value in numeric form only.

| STRUCTURE | logP |
| --- | --- |
| Oc1cc(Cl)c(Cl)c(Cl)c1Cl | 4.37 |
| CCc1ccccc1N | 2.04 |
| CC(C)(C)c1cc(O)cc(C(C)(C)C)c1 | 4.64 |

Lab book: logP of Oc1c(I)cc(I)cc1I noted as 4.5

* * *

Assay: method code SF, from DOI: 10.1016/0045-6535(88)90210-x
# logP per record follows
Please reply with the value in numeric form only.

| MOLECULE | MEASUREMENT_TYPE | RESULT_VALUE |
| --- | --- | --- |
| OCC(Br)CBr (centres undefined) | logP | 0.9 |
| Cc1ccc(O)c(N)c1 | logP | 1.11 |
| NC(=O)Nc1cccc(O)c1 | logP | 0.36 |
| Nc1ccc([N+](=O)[O-])cc1[N+](=O)[O-] | logP | 1.9 |
| OCCCl | logP | 0.03 |
| COc1cc(OC)c(Cl)cc1N | logP | 1.45 |
| Cc1ccc(N)c(C)c1 | logP | 2.13 |
| CC(O)CO (centres undefined) | logP | -0.99 |

Attention now turns to another entry.
Lab book: logP of Cc1ccc(N)cc1Cl noted as 2.4
